experiment-notes: Therapeutic indices, ED90 and LD50 by the method of Miller and Tainter
Set-up: species or system Swiss white mice
run-conditions: mouse, in vivo; LD50/ED90; read-out: Therapeutic Index
Mark 1 for reported selectivity ratio of 2 or greater; mark -1 for anything smaller.

smiles_input=Cn1cc[n+]([Au-]([Cl])([Cl])[Cl])c1 discrete_label=1
smiles_input=CC(=O)c1ccc[n+]([Au-]([Cl])([Cl])[Cl])c1 discrete_label=1

**Query** hey, is selectivity ratio for this one >= 2? "OCc1ccc[n+]([Au-]([Cl])([Cl])[Cl])c1"
**Result** 1

**Query** Would you mind doing "O=C(O)Cc1ccc[n+]([Au-]([Cl])([Cl])[Cl])c1" as well?
**Result** -1

**Query** Would you mind doing "O=C(O)c1ccc[n+]([Au-]([Cl])([Cl])[Cl])c1" as well?
**Result** 1

Sourced from patent EP0195147A1
